# Test system: NCI-H292 lung cancer cells
# testDescription: FDA drug screening, complete media vs cholesterol-free media with simvastatin (TABLE 2)
# Type: cell-based, human
# setupConditions: NCI-H292 cells, FDA library drug in complete media
Counter-ions that a name gives are not always drawn.
Some molecules, each annotated with its measured Complete Media.
Reply with the value as a number alone.

Worked examples, 4 molecules total:
# molecule, targetSystem, Complete Media
data = [
    ("CCCc1c2oc(C(=O)O)cc(=O)c2cc2c(=O)cc(C(=O)O)n(CC)c12", "NCI-H292 lung cancer cells", 1.336),
    ("O=P(O)(O)C(Cl)(Cl)P(=O)(O)O [Clodronic acid (disodium salt)]", "NCI-H292 lung cancer cells", 1.075),
    ("C#CC1(O)CC[C@H]2[C@@H]3CCC4=CC(=O)CC[C@@H]4[C@H]3CC[C@@]21CC (some centres unmarked)", "NCI-H292 lung cancer cells", 1.004),
    ("O=C(O)c1ccc2nc(-c3cc(Cl)cc(Cl)c3)oc2c1", "NCI-H292 lung cancer cells", 0.9388),
]

Give the measured Complete Media of Cc1ccc(=O)n(-c2ccccc2)c1 .
1.068

Same question, C#C[C@]1(O)C=C[C@H]2[C@@H]3CCC4=CC(=O)CC[C@@H]4[C@H]3CC[C@@]21CC this time
1.003

Every entry's value here was drawn from patent US20250144067A1.
